Target: human dopamine D3 receptors (Homo sapiens, UniProt P35462)
Construct: expressed in transfected cells
Sequence (P35462 whole entry): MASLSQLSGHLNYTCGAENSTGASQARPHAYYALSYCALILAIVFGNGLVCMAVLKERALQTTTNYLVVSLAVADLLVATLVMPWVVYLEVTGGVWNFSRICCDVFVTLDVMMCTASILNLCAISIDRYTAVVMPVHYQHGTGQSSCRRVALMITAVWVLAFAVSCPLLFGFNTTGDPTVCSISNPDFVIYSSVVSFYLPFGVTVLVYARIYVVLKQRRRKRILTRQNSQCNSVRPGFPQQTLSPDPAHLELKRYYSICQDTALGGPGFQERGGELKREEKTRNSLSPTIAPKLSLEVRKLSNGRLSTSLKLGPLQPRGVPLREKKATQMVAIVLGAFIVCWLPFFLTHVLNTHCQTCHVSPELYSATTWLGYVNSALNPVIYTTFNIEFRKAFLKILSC
Assay: Dopamine D3 receptor binding, displacement of [125I]-iodosulpride
Details: selectivity ratio of the receptor binding constants D2 over D3
metric name: Ki(D2)*/Ki(D3)*

• C[C@H](CF)c1ccc(S(=O)(=O)Nc2ccc([C@@H]3CCNC3)cc2)cc1 = 35
• C[C@@H](CF)c1ccc(S(=O)(=O)Nc2ccc([C@@H]3CCNC3)cc2)cc1 = 135
• CCCN1CC[C@@H](c2ccc(NS(=O)(=O)c3ccc(C(C)(C)CC)cc3)cc2)C1.Cl = 9
• CCCN1CC[C@@H](c2ccc(NS(=O)(=O)c3ccc(OC(C)C)cc3)cc2)C1.Cl = 44
• CCCN1CC[C@@H](c2ccc(NS(=O)(=O)c3ccc(OC)cc3)cc2)C1 = 43
• CCCN1CC[C@@H](c2ccc(NS(=O)(=O)c3ccc(CCF)cc3)cc2)C1.Cl = 101
• C=CCN1CC[C@H](c2ccc(NS(=O)(=O)c3ccc(C(C)C(F)(F)F)cc3)cc2)C1 (stereo partly shown) = 116
• C=C(C)c1ccc(S(=O)(=O)Nc2ccc([C@@H]3CCN(CCC)C3)cc2)cc1F = 24
• CCCN1CC[C@@H](c2ccc(NS(=O)(=O)c3ccc(C(C)C)cc3)cc2)C1.Cl = 89
• CCCN1CC[C@@H](c2ccc(NS(=O)(=O)c3ccc(-c4cnco4)cc3)cc2)C1 = 44
• CCCN1CC[C@@H](c2ccc(NS(=O)(=O)c3ccc(Br)s3)cc2)C1.Cl = 41
• CCCN1CC[C@@H](c2ccc(NS(=O)(=O)c3ccc(N4CCC4)cc3)cc2)C1 = 19
• CCCN1CC[C@@H](c2ccc(NS(=O)(=O)c3ccc(C4CC4)cc3)cc2)C1 = 30
• CCCN1CC[C@@H](c2ccc(NS(=O)(=O)c3ccc(-c4csnn4)cc3)cc2)C1 = 29
• CC(=O)O.COc1cc(C2CCNC2)ccc1NS(=O)(=O)c1ccc(C(C)C)cc1 (stereo not shown) = 17
• C=CCN1CCC(c2ccc(NS(=O)(=O)c3ccc(C(C)C)cc3)c(OC)c2)C1.Cl (stereo not shown) = 12
• CCCN1CC(c2ccc(NS(=O)(=O)c3ccc(C(C)C(F)(F)F)cc3)cc2)C1 (stereo not shown) = 113
• O=S(=O)(Nc1ccc([C@@H]2CCNC2)cc1)c1ccc(OC(F)(F)F)cc1 = 52
• CCCN1CC(c2ccc(NS(=O)(=O)c3ccc(C(C)C(F)F)cc3)cc2)C1 (stereo not shown) = 164
• CCCN1CC[C@@H](c2ccc(NS(=O)(=O)c3ccc4c(c3)CCC4)cc2)C1.Cl = 60
• C=CCN1CC[C@@H](c2ccc(NS(=O)(=O)c3ccc(OC(F)(F)F)cc3)cc2)C1 = 73
• CCCN1CC[C@@H](c2ccc(NS(=O)(=O)c3ccc(C(C)C(F)F)cc3)cc2)C1 (stereo partly shown) = 37
• CC(C)c1ccc(S(=O)(=O)Nc2ccc([C@@H]3CCN(CCF)C3)cc2)cc1 = 70
• CCCN1CC(c2ccc(NS(=O)(=O)c3ccc(-c4cnco4)cc3)cc2)C1 = 165
• O=S(=O)(Nc1ccc([C@@H]2CCNC2)cc1)c1ccc(CCCF)cc1 = 18
• CCCN1CCC[C@@H](c2ccc(NS(=O)(=O)c3ccc(OC(F)(F)F)cc3)cc2)C1 = 26
• CCN1CC[C@@H](c2ccc(NS(=O)(=O)c3ccc(OC(F)(F)F)cc3)cc2)C1 = 43
• CCCN1CC(c2ccc(NS(=O)(=O)c3ccc(CCCF)cc3)cc2)C1 = 123
